- Subject Of Test: CaMKIIγ (Homo sapiens, UniProt Q13555)
- Construct: purchased Eurofins Pharma Discovery Services (KinaseProfiler; Cerep BioPrint panel)
- Sequence (Q13555 whole entry): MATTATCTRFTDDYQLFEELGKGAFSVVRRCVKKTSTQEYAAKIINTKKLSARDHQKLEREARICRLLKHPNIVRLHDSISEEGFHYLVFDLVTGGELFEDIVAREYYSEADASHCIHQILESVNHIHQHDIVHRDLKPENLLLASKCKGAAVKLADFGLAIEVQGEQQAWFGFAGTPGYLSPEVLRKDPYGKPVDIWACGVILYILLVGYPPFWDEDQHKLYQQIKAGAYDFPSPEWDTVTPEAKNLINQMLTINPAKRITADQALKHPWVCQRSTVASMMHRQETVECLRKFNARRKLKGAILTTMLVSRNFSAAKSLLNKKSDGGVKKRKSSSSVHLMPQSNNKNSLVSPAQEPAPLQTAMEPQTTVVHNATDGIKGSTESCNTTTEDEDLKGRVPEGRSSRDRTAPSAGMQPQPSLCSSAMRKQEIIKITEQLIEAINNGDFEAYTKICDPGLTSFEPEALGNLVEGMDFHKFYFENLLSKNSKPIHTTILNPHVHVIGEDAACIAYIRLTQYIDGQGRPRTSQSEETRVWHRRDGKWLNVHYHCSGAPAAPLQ
- Method Summary: kinase selectivity panel
- Format: biochemical
- Test Conditions: read-out: percentage of control activity (POC), CaMKIIγ
Measure: remaining activity at 10 µM (%)
Report as a plain number; the unit % is understood.

CC(C)(C)N1CCC(c2cc(-c3ccc(F)cc3Cl)c3cc[n+]([O-])c(-c4c(Cl)cccc4Cl)c3n2)CC1 [compound 2]; 91

Requested field: remaining activity at 10 µM. Item: CS(=O)(=O)N1CCN(c2ccc(Nc3ncc(C(N)=O)c(NC4CC4)n3)cc2)CC1 [compound 5]
24

Requested field: remaining activity at 10 µM. Item: Cc1ccc(C(=O)NCC2CC2)cc1-c1ccc2c(c1)NC(=O)C21CCCC1 [compound 3]
103

Requested field: remaining activity at 10 µM. Item: COc1c(NC(=O)c2ccc(C)c(-c3nnc4c(NCC(C)(C)C)nccn34)c2)cc(C(C)(C)C)cc1NS(C)(=O)=O [compound 7, reference compound]
102

Requested field: remaining activity at 10 µM. Item: Cn1cc(-c2cccc(-c3nc(C(=O)NC4C5CC6CC4CC(O)(C6)C5)c(N)nc3N)c2)cn1 (centres unmarked) [compound 4]
83

====

remaining activity at 10 µM by entry:
- Subject Of Test: PKCι (Homo sapiens, UniProt P41743)
- Construct: purchased Eurofins Pharma Discovery Services (KinaseProfiler; Cerep BioPrint panel)
- Sequence (P41743 whole entry): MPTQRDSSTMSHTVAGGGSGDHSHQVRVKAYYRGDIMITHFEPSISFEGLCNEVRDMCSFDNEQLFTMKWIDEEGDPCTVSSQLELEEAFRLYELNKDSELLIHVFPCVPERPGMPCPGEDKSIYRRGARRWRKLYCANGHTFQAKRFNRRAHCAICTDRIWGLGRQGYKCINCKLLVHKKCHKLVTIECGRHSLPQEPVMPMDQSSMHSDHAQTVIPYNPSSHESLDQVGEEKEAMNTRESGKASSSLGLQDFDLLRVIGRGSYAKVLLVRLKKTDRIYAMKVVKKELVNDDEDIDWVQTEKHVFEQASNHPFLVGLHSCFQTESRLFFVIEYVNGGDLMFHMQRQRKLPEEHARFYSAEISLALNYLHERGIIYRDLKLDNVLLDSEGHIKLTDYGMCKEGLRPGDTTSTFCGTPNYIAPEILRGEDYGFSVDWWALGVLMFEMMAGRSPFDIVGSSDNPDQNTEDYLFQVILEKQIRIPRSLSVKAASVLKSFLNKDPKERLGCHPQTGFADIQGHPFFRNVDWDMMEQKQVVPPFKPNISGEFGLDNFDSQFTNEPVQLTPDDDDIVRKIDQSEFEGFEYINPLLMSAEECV
- Method Summary: kinase selectivity panel
- Format: biochemical
- Test Conditions: read-out: percentage of control activity (POC), PKCι
Report as a plain number; the unit % is understood.

A selection of reference data follows.
CS(=O)(=O)N1CCN(c2ccc(Nc3ncc(C(N)=O)c(NC4CC4)n3)cc2)CC1; 83
Cc1ccc(C(=O)NCC2CC2)cc1-c1ccc2c(c1)NC(=O)C21CCCC1; 100
COc1c(NC(=O)c2ccc(C)c(-c3nnc4c(NCC(C)(C)C)nccn34)c2)cc(C(C)(C)C)cc1NS(C)(=O)=O [compound 7, reference compound]; 103
CC(C)(C)N1CCC(c2cc(-c3ccc(F)cc3Cl)c3cc[n+]([O-])c(-c4c(Cl)cccc4Cl)c3n2)CC1; 103

Next molecule, please.
Requested field: remaining activity at 10 µM. Item: Cn1cc(-c2cccc(-c3nc(C(=O)NC4C5CC6CC4CC(O)(C6)C5)c(N)nc3N)c2)cn1 (centres unmarked)
87

====

remaining activity at 10 µM by entry:
- Subject Of Test: PKCβII (Homo sapiens)
- Construct: purchased Eurofins Pharma Discovery Services (KinaseProfiler; Cerep BioPrint panel)
- Sequence (P05771 1-673 isoform P05771-2): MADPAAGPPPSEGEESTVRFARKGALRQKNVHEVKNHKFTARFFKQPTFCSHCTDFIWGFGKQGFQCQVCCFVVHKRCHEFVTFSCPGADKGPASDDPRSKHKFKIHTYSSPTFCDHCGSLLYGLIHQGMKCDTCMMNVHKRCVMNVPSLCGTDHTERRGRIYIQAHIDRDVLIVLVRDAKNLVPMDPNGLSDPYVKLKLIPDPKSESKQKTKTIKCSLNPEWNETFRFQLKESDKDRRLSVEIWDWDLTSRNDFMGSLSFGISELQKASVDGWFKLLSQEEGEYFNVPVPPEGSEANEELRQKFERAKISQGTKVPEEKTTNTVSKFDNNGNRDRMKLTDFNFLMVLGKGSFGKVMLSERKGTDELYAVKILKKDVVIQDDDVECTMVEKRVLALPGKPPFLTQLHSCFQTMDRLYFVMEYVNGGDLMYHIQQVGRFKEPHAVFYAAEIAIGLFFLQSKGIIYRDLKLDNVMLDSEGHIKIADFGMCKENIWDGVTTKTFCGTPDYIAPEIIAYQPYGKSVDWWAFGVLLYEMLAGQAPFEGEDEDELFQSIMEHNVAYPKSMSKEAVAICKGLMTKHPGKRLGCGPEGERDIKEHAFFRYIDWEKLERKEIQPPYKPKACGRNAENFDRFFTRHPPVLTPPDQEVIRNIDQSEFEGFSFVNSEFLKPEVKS
- Method Summary: kinase selectivity panel
- Type: biochemical
- Test Conditions: read-out: percentage of control activity (POC), PKCβII
Report as a plain number; the unit % is understood.

A selection of reference data follows.
CS(=O)(=O)N1CCN(c2ccc(Nc3ncc(C(N)=O)c(NC4CC4)n3)cc2)CC1; 80
CC(C)(C)N1CCC(c2cc(-c3ccc(F)cc3Cl)c3cc[n+]([O-])c(-c4c(Cl)cccc4Cl)c3n2)CC1; 117
Cn1cc(-c2cccc(-c3nc(C(=O)NC4C5CC6CC4CC(O)(C6)C5)c(N)nc3N)c2)cn1 (centres unmarked); 110
COc1c(NC(=O)c2ccc(C)c(-c3nnc4c(NCC(C)(C)C)nccn34)c2)cc(C(C)(C)C)cc1NS(C)(=O)=O [compound 7, reference compound]; 113

Next compound, please.
GET /values?readout=remaining activity at 10 µM&system=PKCβII (Homo sapiens)&item= Cc1ccc(C(=O)NCC2CC2)cc1-c1ccc2c(c1)NC(=O)C21CCCC1
103

====

- Subject Of Test: EGFR (Homo sapiens)
- Construct: purchased Eurofins Pharma Discovery Services (KinaseProfiler; Cerep BioPrint panel)
- Sequence (P00533 25-1210): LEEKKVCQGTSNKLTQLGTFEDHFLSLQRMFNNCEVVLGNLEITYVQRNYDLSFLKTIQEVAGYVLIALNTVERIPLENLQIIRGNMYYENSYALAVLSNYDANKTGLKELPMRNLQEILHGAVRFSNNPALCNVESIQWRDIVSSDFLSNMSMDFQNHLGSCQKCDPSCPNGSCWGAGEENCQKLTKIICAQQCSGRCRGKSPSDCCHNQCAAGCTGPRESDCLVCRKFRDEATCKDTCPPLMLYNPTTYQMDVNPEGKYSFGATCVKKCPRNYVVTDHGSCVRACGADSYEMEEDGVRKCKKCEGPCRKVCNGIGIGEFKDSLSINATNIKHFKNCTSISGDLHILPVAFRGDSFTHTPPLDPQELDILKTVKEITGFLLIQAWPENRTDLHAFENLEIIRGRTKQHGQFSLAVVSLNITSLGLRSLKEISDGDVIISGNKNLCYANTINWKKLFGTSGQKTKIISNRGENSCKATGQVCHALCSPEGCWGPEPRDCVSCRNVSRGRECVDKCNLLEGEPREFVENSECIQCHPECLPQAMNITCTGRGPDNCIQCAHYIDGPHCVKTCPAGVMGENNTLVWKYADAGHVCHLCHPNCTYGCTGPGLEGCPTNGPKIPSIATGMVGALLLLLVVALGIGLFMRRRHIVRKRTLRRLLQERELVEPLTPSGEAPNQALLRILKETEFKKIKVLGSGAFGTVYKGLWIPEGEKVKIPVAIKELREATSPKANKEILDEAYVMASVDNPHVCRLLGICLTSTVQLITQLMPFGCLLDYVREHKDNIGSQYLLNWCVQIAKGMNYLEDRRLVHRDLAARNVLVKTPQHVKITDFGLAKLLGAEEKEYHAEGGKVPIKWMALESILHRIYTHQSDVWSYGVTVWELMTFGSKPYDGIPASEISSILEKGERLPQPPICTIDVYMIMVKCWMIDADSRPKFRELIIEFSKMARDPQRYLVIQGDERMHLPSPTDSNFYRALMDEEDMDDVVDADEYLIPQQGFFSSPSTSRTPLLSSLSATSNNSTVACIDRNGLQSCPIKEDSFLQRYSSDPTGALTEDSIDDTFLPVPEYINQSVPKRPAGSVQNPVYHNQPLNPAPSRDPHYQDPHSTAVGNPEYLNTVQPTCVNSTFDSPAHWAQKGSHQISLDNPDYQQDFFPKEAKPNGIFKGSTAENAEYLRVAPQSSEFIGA
- Method Summary: kinase selectivity panel
- Assay type: biochemical
- Test Conditions: read-out: percentage of control activity (POC), EGFR
Measure: remaining activity at 10 µM (%)
Report as a plain number; the unit % is understood.

A selection of reference data follows.
COc1c(NC(=O)c2ccc(C)c(-c3nnc4c(NCC(C)(C)C)nccn34)c2)cc(C(C)(C)C)cc1NS(C)(=O)=O [compound 7, reference compound]; 104
CC(C)(C)N1CCC(c2cc(-c3ccc(F)cc3Cl)c3cc[n+]([O-])c(-c4c(Cl)cccc4Cl)c3n2)CC1; 96
Cc1ccc(C(=O)NCC2CC2)cc1-c1ccc2c(c1)NC(=O)C21CCCC1; 91

Requested field: remaining activity at 10 µM. Item: CS(=O)(=O)N1CCN(c2ccc(Nc3ncc(C(N)=O)c(NC4CC4)n3)cc2)CC1
87

Requested field: remaining activity at 10 µM. Item: Cn1cc(-c2cccc(-c3nc(C(=O)NC4C5CC6CC4CC(O)(C6)C5)c(N)nc3N)c2)cn1 (centres unmarked)
95

====

- Subject Of Test: ASK1 (Homo sapiens, UniProt Q99683)
- Construct: purchased Eurofins Pharma Discovery Services (KinaseProfiler; Cerep BioPrint panel)
- Method Summary: kinase selectivity panel
- Assay type: biochemical
- Test Conditions: read-out: percentage of control activity (POC), ASK1
Label Met when remaining activity at 10 µM < 90%; otherwise Not met.

CS(=O)(=O)N1CCN(c2ccc(Nc3ncc(C(N)=O)c(NC4CC4)n3)cc2)CC1 [compound 5]; Met
CC(C)(C)N1CCC(c2cc(-c3ccc(F)cc3Cl)c3cc[n+]([O-])c(-c4c(Cl)cccc4Cl)c3n2)CC1 [compound 2]; Not met
COc1c(NC(=O)c2ccc(C)c(-c3nnc4c(NCC(C)(C)C)nccn34)c2)cc(C(C)(C)C)cc1NS(C)(=O)=O [compound 7, reference compound]; Met

API: the following record is the query input.
Quick check: does Cc1ccc(C(=O)NCC2CC2)cc1-c1ccc2c(c1)NC(=O)C21CCCC1 [compound 3] have remaining activity at 10 µM under 90%?
Not met

====

- Subject Of Test: PTK5 (Homo sapiens)
- Construct: purchased Eurofins Pharma Discovery Services (KinaseProfiler; Cerep BioPrint panel)
- Sequence (P42685 whole entry): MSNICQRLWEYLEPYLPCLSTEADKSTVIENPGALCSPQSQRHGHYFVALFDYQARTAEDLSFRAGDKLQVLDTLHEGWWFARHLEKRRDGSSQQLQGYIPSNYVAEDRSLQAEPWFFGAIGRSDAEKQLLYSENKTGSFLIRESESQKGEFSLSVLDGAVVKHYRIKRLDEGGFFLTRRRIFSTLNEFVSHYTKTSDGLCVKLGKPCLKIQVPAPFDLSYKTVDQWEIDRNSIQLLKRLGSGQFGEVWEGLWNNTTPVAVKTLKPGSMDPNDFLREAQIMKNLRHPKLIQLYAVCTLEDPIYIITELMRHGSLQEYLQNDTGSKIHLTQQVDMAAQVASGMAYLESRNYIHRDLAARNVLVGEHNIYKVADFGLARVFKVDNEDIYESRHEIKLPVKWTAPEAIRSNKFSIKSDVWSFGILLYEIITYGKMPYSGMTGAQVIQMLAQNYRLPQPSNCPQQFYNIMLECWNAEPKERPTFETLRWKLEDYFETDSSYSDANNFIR
- Method Summary: kinase selectivity panel
- Format: biochemical
- Test Conditions: read-out: percentage of control activity (POC), PTK5
Measure: remaining activity at 10 µM (%)
Report as a plain number; the unit % is understood.

A selection of reference data follows.
CC(C)(C)N1CCC(c2cc(-c3ccc(F)cc3Cl)c3cc[n+]([O-])c(-c4c(Cl)cccc4Cl)c3n2)CC1; 97
COc1c(NC(=O)c2ccc(C)c(-c3nnc4c(NCC(C)(C)C)nccn34)c2)cc(C(C)(C)C)cc1NS(C)(=O)=O [compound 7, reference compound]; 4
Cn1cc(-c2cccc(-c3nc(C(=O)NC4C5CC6CC4CC(O)(C6)C5)c(N)nc3N)c2)cn1 (centres unmarked); 54
Cc1ccc(C(=O)NCC2CC2)cc1-c1ccc2c(c1)NC(=O)C21CCCC1; 56

Requested field: remaining activity at 10 µM. Item: CS(=O)(=O)N1CCN(c2ccc(Nc3ncc(C(N)=O)c(NC4CC4)n3)cc2)CC1
31

====

- Subject Of Test: MAPK1 (Homo sapiens, UniProt P27361)
- Construct: purchased Eurofins Pharma Discovery Services (KinaseProfiler; Cerep BioPrint panel)
- Sequence (P27361 whole entry): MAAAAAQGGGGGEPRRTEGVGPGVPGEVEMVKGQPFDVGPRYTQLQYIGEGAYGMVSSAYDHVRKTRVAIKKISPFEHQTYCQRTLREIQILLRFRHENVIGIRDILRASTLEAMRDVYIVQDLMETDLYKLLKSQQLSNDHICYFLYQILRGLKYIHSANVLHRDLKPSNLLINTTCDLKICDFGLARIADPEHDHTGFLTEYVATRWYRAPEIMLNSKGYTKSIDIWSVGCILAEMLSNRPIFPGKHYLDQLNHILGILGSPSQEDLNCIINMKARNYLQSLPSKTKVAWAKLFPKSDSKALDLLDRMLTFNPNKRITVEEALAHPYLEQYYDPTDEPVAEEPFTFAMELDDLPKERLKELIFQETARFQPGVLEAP
- Method Summary: kinase selectivity panel
- Assay type: biochemical
- Test Conditions: read-out: percentage of control activity (POC), MAPK1
remaining activity at 10 µM by entry:
Report as a plain number; the unit % is understood.

A selection of reference data follows.
CS(=O)(=O)N1CCN(c2ccc(Nc3ncc(C(N)=O)c(NC4CC4)n3)cc2)CC1; 34
Cn1cc(-c2cccc(-c3nc(C(=O)NC4C5CC6CC4CC(O)(C6)C5)c(N)nc3N)c2)cn1 (centres unmarked); 96
Cc1ccc(C(=O)NCC2CC2)cc1-c1ccc2c(c1)NC(=O)C21CCCC1; 88
COc1c(NC(=O)c2ccc(C)c(-c3nnc4c(NCC(C)(C)C)nccn34)c2)cc(C(C)(C)C)cc1NS(C)(=O)=O [compound 7, reference compound]; 85

Next compound, please.
Requested field: remaining activity at 10 µM. Item: CC(C)(C)N1CCC(c2cc(-c3ccc(F)cc3Cl)c3cc[n+]([O-])c(-c4c(Cl)cccc4Cl)c3n2)CC1
105

====

remaining activity at 10 µM by entry:
- Subject Of Test: Axl (Homo sapiens, UniProt P30530)
- Construct: purchased Eurofins Pharma Discovery Services (KinaseProfiler; Cerep BioPrint panel)
- Sequence (P30530 26-894): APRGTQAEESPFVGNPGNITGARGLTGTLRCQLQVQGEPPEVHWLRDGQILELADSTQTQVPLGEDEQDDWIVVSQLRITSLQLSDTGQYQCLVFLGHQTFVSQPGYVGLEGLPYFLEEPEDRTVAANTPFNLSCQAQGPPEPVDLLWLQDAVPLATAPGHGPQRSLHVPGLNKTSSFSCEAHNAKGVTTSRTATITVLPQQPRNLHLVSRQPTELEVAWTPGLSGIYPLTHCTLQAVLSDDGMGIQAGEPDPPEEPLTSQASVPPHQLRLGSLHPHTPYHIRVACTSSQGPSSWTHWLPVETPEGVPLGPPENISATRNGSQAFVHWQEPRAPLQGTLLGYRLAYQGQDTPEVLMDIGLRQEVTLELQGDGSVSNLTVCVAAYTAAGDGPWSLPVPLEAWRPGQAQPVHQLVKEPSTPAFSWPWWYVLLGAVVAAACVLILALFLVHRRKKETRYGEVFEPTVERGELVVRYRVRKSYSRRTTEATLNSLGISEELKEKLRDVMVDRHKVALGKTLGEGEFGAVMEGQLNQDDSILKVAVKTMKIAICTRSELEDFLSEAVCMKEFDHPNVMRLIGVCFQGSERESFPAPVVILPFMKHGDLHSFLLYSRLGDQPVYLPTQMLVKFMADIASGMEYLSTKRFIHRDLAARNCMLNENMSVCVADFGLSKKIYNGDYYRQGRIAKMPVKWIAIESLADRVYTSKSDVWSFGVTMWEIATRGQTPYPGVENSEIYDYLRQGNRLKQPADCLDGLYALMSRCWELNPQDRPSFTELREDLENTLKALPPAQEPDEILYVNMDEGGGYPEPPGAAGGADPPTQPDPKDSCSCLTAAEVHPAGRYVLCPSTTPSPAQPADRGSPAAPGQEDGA
- Method Summary: kinase selectivity panel
- Assay type: biochemical
- Test Conditions: read-out: percentage of control activity (POC), Axl
Report as a plain number; the unit % is understood.

A selection of reference data follows.
CC(C)(C)N1CCC(c2cc(-c3ccc(F)cc3Cl)c3cc[n+]([O-])c(-c4c(Cl)cccc4Cl)c3n2)CC1; 98
CS(=O)(=O)N1CCN(c2ccc(Nc3ncc(C(N)=O)c(NC4CC4)n3)cc2)CC1; 12
COc1c(NC(=O)c2ccc(C)c(-c3nnc4c(NCC(C)(C)C)nccn34)c2)cc(C(C)(C)C)cc1NS(C)(=O)=O [compound 7, reference compound]; 91
Cn1cc(-c2cccc(-c3nc(C(=O)NC4C5CC6CC4CC(O)(C6)C5)c(N)nc3N)c2)cn1 (centres unmarked); 59

Next compound, please.
GET /values?readout=remaining activity at 10 µM&system=Axl (Homo sapiens, UniProt P30530)&item= Cc1ccc(C(=O)NCC2CC2)cc1-c1ccc2c(c1)NC(=O)C21CCCC1
88
